# procedure.text: yeast display, Sf9 membrane polyspecificity reagent, FACS + sequencing; frameworks hold sequencing errors
recorded.endpoint: polyreactivity (PSR sort gate)

1) QVQLVESGGGLVQAGGSLRLSCAASGFTFVYYAMGWYRQAPGKERELVPAISWNGGSTYYADSVKGRFTISRDNAKNTVYLQMNCLKPEDTAVYYCAAEYSYRLLQTFYYPYGYWGQGTQVTVSS; high polyreactivity
2) HVQLVESGGGLVQAGGSLRLSCAASGRIFKYYAMGWYRQAPGKERELLAAITYSGGSTNYADSVKGRFTISRDNAKNTVYLQMKSLKPEDTAVYYCNAYSYRNFLSHYNYWGQGTQVTVSS; high polyreactivity
3) QVQLVESGGGLVQAGGSLRLSCAASGSTFFIYAMGWYRQAPGKERELVATITKRGGRTYYADSVKGRFTISRDNAKNTVYLQMNSLKPEDTAVYYCAKDLWAVYLPGYDYWGQGTQVTVSS; low polyreactivity
4) QVQLEESGGGLVQAGGSLRLSCADSGITFYLNAMGWYRQAPGKERELVADITVSGGSTYYADSVKGRFTISRDNAKNTVYLEMNSLKPEDTAVYYCAADMTISYSQEYYFWGQGTQVTVSS; low polyreactivity
5) QVQLVESGGGLVQAGGSLRLSCAASGLTFDPYAMGWYRQAPGKERELVADISDGASTYYADSVKGRFTMSRDNAKNTVYLQMNSLKPEDTAVYYCNVDVGWYAFTDAYDYWGQGTHVTVSS; low polyreactivity

All figures here come from the nanobody polyreactivity screen of Harvey et al. (2022).
